# Tested on: RXRa DBDmut IVT, anti-RXR (DBD mutation: RXRa K156A/R161A, NR concentration 90 nM)
# assaySummary: PBM binding z-score (relative to random genomic background probes); higher = stronger binding; sequences stand for … in GC…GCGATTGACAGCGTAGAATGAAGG
attributeMeasured: PBM binding z-score
// no unit string in output, number only

PBM binding z-score for `CCGAGGAGGTTATGGGGCATTCAGGCAACGGTGA` is 0.0755

PBM binding z-score for `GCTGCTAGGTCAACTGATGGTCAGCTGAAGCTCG` is 1.55

PBM binding z-score for `ATCTCTAGGTAAAGATAGTTCAGGGAATGCAAAT` is 0.0937

PBM binding z-score for `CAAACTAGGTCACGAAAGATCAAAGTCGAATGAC` is 1.99

PBM binding z-score for `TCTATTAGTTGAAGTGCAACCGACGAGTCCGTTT` is 1.58

PBM binding z-score for `GCTGCTAGGTCAGGTTGATCAGCTAACGGGTACG` is 0.558

PBM binding z-score for `CGTCCAAGGTTATAGGAGGTCAGTGAAGACAGAT` is 1.48

PBM binding z-score for `CGAACAAGGGCATGAGTTGATAGCAAATGCCGAT` is 1.3

PBM binding z-score for `TCTTGCAGATCAAAGGTTAAGAAAGCCGAAGCCT` is 0.00809

PBM binding z-score for `CCTTACGGGGCACTCCAGGTTATAGCATCGGAGT` is -0.513

PBM binding z-score for `CCTACTGGGCAAAAGGTCATTGATTCCAATGCTC` is 0.966

PBM binding z-score for `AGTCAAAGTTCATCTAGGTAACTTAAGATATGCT` is 4.71
